Target: human Claudin18.2 (human)
Test: cell-based or functional assay
Reported CDC % Relative activity values follow for various binders
Answer with a number only, understood to be in %.

Reference set (3 entries):
• 414A5F7 (antibody, V domains shown) VH: DVQLVESGGGLVQPGGSRKLSCAASGFTFSSFGMHWVRQAPEKGLEWVAYISSGSSPIYYADTVKGRFTISRDNPKNTLFLQMTSLRSEDTAMYFCARIYYGNSFAYWGQGTLVTVSA VL: DIVMTQSPSSLTVTAGEKVAMSCKSSQTLLNSGNQKNYLTWYQQKPGQPPKLLLYWASTRESGVPDRFTGSGSGTDFTLTISSVQAEDLAVYYCQNAYYYPLTFGSGTKLELK = 594
• 422E8F9 (antibody, V domains shown) VH: DVQLVESGGGLVQPGGSRKLSCAASGFTFSGFGMHWIRQTPEKGLEWVAYISSGSRPIYYADTVQGRFTISRDNPKNTLFLQMTSLRSEDTAMYFCARFYYGNSFDHWGQGTLVTVSS VL: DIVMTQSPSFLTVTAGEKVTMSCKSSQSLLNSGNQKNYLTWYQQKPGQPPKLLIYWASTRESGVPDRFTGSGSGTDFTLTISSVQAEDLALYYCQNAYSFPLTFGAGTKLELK = 89.2
• 277F1F8 (antibody, V domains shown) VH: QAYLQQSGPELVRSGASVKMSCKASGYTFTSHNMHWVKQTPGQGLEWIGYINPGNGGNNYNQKFKGKATLTADTSSSTAYMQISSLTSEDSAVYFCARDYYGNSFAFWGQGTLVTVSA VL: DIVMTQSPSSLTETAGEKVSMSCKSSQSLLNSGNQKNYLTWYQQKPGQPPKLLIYWASTRESGVPDRFTGSGSGTDFTLTISSVQAEDLAVYYCQNDYRFPFTFGAGTKLELK = 106

Requested read-out: CDC % Relative activity. Entry: 420H7E6 (antibody, V domains shown) VH: DVQLVESGGGLVQPGGSRKLSCVTSGFTFSSFGMHWIRQAPEKGLEWVAFISGGGSPIFYADSVKGRFTVSRDNPKNTLFLQMTGLRSEDTAMYFCARFYFGNSFAYWGQGTLVTVSA VL: DIVMAQSPSSLTVTAGEKVTMNCRSSQSLFNSGNQKNYLTWYQQKPGQPPKLLIYWASTRESGVPVRFTGSGSGTDFTLTISSVQAEDLAVYYCQTGFSYPLTFGPGTKLELK
48.8

Consider next the binder 257G7F7 (antibody, V domains shown) VH: QAYLQQSGAELVRSGASVKMSCKASGYTFTSHNLHWVKQTPGQGLEWIGYIYPGNGNTNYNQKFKGKATLTADTSSSTAYMQISSLTSEDSAVYFCTRDYYGNSFAYWGQGTLVTVSA VL: DIVMTQSPSSLTEKAGERVSMSCKSSQSLFNSGNQKNYLTWYQQKPGQPPKLLIYWASTRESGVPDRFTGSGSGTDFTLTISSVQAEDLAVYYCQNNYWFPFTFGAGTKLELK in the same way.
141

Consider next the binder 407A8G10 (antibody, V domains shown) VH: DVQLVESGGGLVQPGGSRKLSCAASGFTFSGFGMHWIRQTPEKGLEWVAYISSGSRPIYYADTVKGRFTISRDNPKNTLFLQMTSLRSEDTAMYFCARFYYGNSFDHWGQGTLVTVSA VL: DIVMTQSPSFLTVTAGEKVTMSCRSSQSLLNSGNQRNYLTWYQQKPGQPPKLLIYWASTRESGVPDRFTGSGSGTDFALTISSVQAEDLALYYCQNAYSFPLTFGAGTKLELK in the same way.
23.9
